# Test system: TK-10 renal
# method_notes: NCI-60 one-dose screen, 48 h (100 = growth as untreated, 0 = no growth, -100 = all killed)
# cond: 10 µM unless noted
Compounds without any hit were thinned out: in the full panel of roughly 83,000, 20% have a hit.
For each of the molecules below, state its growth.
One number for each entry, in %.

Field: growth. Fill in for each record below.
1. NC(N)=NS(=O)(=O)c1ccc(NC2=C(I)C(=O)c3ncccc3C2=O)cc1
2. CCN(CC)CCCN1C(=O)c2c(c(C)c3c(oc4ccc(O)cc43)c2C)C1=O
3. C#CCNC(=O)[C@]1(C)CCC[C@@]2(C)[C@H]1CC=C1C=C(C(C)C)CC[C@@H]12
4. O=C1/C(=C/c2ccc(F)cc2)CN(C(=O)C(Cl)Cl)C/C1=C\c1ccc(F)cc1

118
-27.4
99.7
-59.8

GET /values?readout=growth&item= "S=c1nc2oc(-c3ccccc3)c(-c3ccccc3)c2c(/N=C\c2ccco2)[nH]1"
99.6

----------
# System: SK-MEL-2 melanoma
# method_notes: NCI-60 one-dose screen, 48 h (100 = growth as untreated, 0 = no growth, -100 = all killed)
# cond: 10 µM unless noted
Compounds without any hit were thinned out: in the full panel of roughly 83,000, 20% have a hit.
Provide the reported growth of each item.
Answers are plain numbers, in %.

compound=COc1cccc(NCc2nnc(Nc3ccc(Cl)cc3)c3ccccc23)c1 recorded_result=-34.4
compound=O=C(Oc1ccc(CCl)cc1)c1ccccc1 recorded_result=-71.4

# return growth for each item in the list
1. CCN1C(=O)N(CC)C2Nn3c(s/c(=C\c4ccccc4Br)c3=O)=NC21 (centres undefined)
2. CS(=O)(=O)c1ccc(NC(=O)c2ccccc2)nc1

48.5
109

----------
I'd be grateful if you could share measured growth for these entries.
# System: NCI-H322M lung
# method_notes: NCI-60 one-dose screen, 48 h (100 = growth as untreated, 0 = no growth, -100 = all killed)
# cond: 10 µM unless noted
This is part of a sample that, as a whole, favours compounds with a hit. Of some 83,000 tested, about 20% had one in any assay. Calls of active or inactive are those of the source. How the source made its calls: active means growth percent below 10; inactive means the rest.

Each compound below has a recorded value; state its growth.
1. CNC1=C([N+](=O)[O-])C(c2ccc(OC)cc2)C(C#N)=C(c2cccs2)O1 (centres undefined)
2. COc1cc(NC(=O)c2cncnc2Nc2ccc3c(ccn3Cc3ccccn3)c2)cc(OC)c1
3. CC(C)(C)c1cc(Cl)c(O)c(CNCCO)c1
4. C#CCOc1cccc(-c2ncnc3cc(NC(=O)C=C)ccc23)c1
5. CN1CCN(Cc2ccc(NC(=O)c3cncc(C#Cc4cnc(N)c5ncccc45)c3)cc2C(F)(F)F)CC1
6. CCN1C(=O)N(CC)C2C1NN=c1s/c(=C\c3ccc(C(F)(F)F)cc3)c(=O)n12 (centres undefined)
7. COc1cc(-c2nc3sccn3c2-c2ccnc(NCCNS(=O)(=O)c3ccc(Cl)cc3)n2)ccc1F
8. O=C(CN1CCCCCC1)Nc1nc2ccc(NCc3ccc(Cl)cc3)cc2s1

["103% (inactive)", "76.4% (inactive)", "118% (inactive)", "70.3% (inactive)", "25.1% (inactive)", "45.2% (inactive)", "70.4% (inactive)", "108% (inactive)"]

For every item below, please supply its growth.
1. CCN1C(=O)N(CC)C2C1NC(=S)N2/N=C/c1ccc(C(F)(F)F)cc1 (centres undefined)
2. COc1ccc(/C=C/C(=O)c2ccc(NC(=O)CSc3nc4c([nH]3)c(=O)n(C)c(=O)n4C)cc2)cc1OC

82.5% (inactive)
81% (inactive)

Provide the reported growth of each entry below, same order.
1. C=CCn1c(SCC(=O)Nc2ccc(/C(C)=N/O)cc2)nnc1-c1cc(-c2ccc(S(N)(=O)=O)cc2)nc2ccccc12
2. Cc1ccc(-c2nc(-c3cn(C)c4ncccc34)cs2)cc1
3. CN(Cc1cnc2nc(N)nc(N)c2n1)c1ccc(C(=O)NC(CCC(=O)O)C(=O)O)cc1Br (centres undefined)
4. COc1cc(-c2nc3c(ncc4ccc(=O)n(-c5ccccc5)c43)s2)cc(OC)c1OC

1. 96.7% (inactive)
2. -32% [100 µM] (active)
3. 69.6% (inactive)
4. 73.6% (inactive)

Hello, the source for this data is PubChem BioAssay (NCI), in case you need it.
